// compounds with reported IC50 on Histone-lysine N-methyltransferase EZH2 (Homo sapiens), multi-publication
measurementType: IC50 (nM)

>  <compound>
Cc1cc(C)c(CNC(=O)c2cc(Br)c3c(c2C)O[C@@](C)(C2CCN(C)CC2)O3)c(=O)[nH]1

>  <IC50 (nM)>
16

$$$$
>  <compound>
Cc1cc(C)c(CNC(=O)c2cc(Br)c3c(c2C)OC(C)(C[C@H]2CC[C@H](N(C)C)CC2)O3)c(=O)[nH]1 (relative stereo)

>  <IC50 (nM)>
20

$$$$
>  <compound>
CCc1cc(C)[nH]c(=O)c1CNC(=O)c1cc(Cl)c2c(c1C)OC(C)([C@H]1CC[C@H](N(C)C)CC1)O2 (relative stereo)

>  <IC50 (nM)>
19

$$$$
>  <compound>
CCN(c1cc(Cl)cc(C(=O)NCc2c(C)[nH]n(C(C)C)c2=O)c1C)[C@H]1CC[C@H](N(C)C)CC1

>  <IC50 (nM)>
15600

$$$$
>  <compound>
CCN1CCN(c2ccc(-c3cc(C(=O)NCc4c(C)cc(C)[nH]c4=O)c(C)c4c3OC(CC)(C3CCOCC3)O4)cn2)CC1 (stereo not shown)

>  <IC50 (nM)>
28

$$$$

[P] CCN(c1cc(N2Cc3ccc(N4CCOCC4)cc3C2)cc(C(=O)NCc2c(C)cc(C)[nH]c2=O)c1C)C1CCOCC1
[Q] COc1cc(C(=O)NCc2c(C)cc(C)[nH]c2=O)c(C)c2c1OC(C)([C@H]1CC[C@H](N(C)C)CC1)O2 (relative stereo)
[R] CSc1cc(C)[nH]c(=O)c1CNC(=O)c1cc(Cl)c2c(c1C)OC(C)(C1CCN(CC3CCC3)CC1)O2 (stereo not shown)
[S] Cc1cc(C)c(CNC(=O)c2cc(C3=CCCC3)c3c(c2C)OC(C)([C@H]2CC[C@H](N(C)C)CC2)O3)c(=O)[nH]1 (relative stereo)
q: Rank the 4 compounds: largest IC50 first, smallest last. Give the order by naming the labels one after another as requested.
a: Q, S, P, R
(Q: 20 nM, S: 10 nM, P: 0.8 nM, R: 0.44 nM)

[a] CCc1cc(C(=O)NCc2c(C)cc(C)[nH]c2=O)c(C)c2c1OC(C)([C@H]1CC[C@H](N(C)C)CC1)O2 (relative stereo)
[b] CCN(c1cc(Cl)cc(C(=O)NCCc2nc3ccccc3o2)c1C)[C@H]1CC[C@H](N(C)C)CC1
q: Field: entry with larger IC50 (options a / b ). Please respond with the label that marks your chosen entry.
a: b
(b: 6550 nM, a: 12 nM)
